TARGET_UNDER_TEST: UniProt P25779
Sequence (P25779 123-467 limits assumed): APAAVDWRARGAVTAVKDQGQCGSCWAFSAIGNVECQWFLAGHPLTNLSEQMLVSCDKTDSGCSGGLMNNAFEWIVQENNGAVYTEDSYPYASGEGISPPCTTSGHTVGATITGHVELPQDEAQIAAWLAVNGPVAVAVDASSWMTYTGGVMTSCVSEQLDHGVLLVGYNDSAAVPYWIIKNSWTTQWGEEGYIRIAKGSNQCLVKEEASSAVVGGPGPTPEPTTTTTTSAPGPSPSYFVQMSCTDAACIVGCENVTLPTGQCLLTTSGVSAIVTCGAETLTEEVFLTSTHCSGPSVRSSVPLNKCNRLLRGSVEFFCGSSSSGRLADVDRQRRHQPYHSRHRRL
EXPERIMENT_NOTES: Ratio of kinact to ki for cruzain
Design: unit not given here
QUANTITY_NAME: Ratio
Form: value (number only, do not type unit).

Entry CCOC(=O)[C@@H]1O[C@@H]1C(=O)[C@H](CCc1ccccc1)NC(=O)[C@H](Cc1ccccc1)NC(=O)OCc1ccccc1 , Ratio reported as 25200

Entry CC(C)CCNC(=O)[C@H](CC(C)C)NC(=O)[C@H]1OC1C(=O)O (single isomer, unassigned) , Ratio reported as 70600

Entry O=C(N[C@@H](Cc1ccccc1)C(=O)N[C@@H](CCc1ccccc1)C(=O)[C@H]1CO1)OCc1ccccc1 , Ratio reported as 128000

Entry CCOC(=O)[C@H]1O[C@H]1C(=O)[C@H](CCc1ccccc1)NC(=O)[C@H](Cc1ccccc1)NC(=O)OCc1ccccc1 , Ratio reported as 82900

Entry O=C(N[C@@H](Cc1ccccc1)C(=O)N[C@@H](CCc1ccccc1)C(=O)[C@@H]1CO1)OCc1ccccc1 , Ratio reported as 330000

----------
Test system: Trypanosoma brucei brucei
EXPERIMENT_NOTES: Inhibition of Trypanosoma brucei brucei cathepsin B
MEASUREMENT_SETUP: concentration not given here
QUANTITY_NAME: inhibition
Write the numeric value and follow it with the unit.

Entry CCOC(=O)[C@H]1O[C@H]1[C@H](O)[C@H](CCc1ccccc1)NC(=O)[C@H](Cc1ccccc1)NC(=O)OCc1ccccc1 , inhibition reported as 6%

Entry CCOC(=O)[C@@H]1O[C@H]1[C@@H](O)[C@H](CCc1ccccc1)NC(=O)[C@H](Cc1ccccc1)NC(=O)OCc1ccccc1 , inhibition reported as 3%

Entry CCOC(=O)[C@@H]1O[C@@H]1C(=O)[C@H](CCc1ccccc1)NC(=O)[C@H](Cc1ccccc1)NC(=O)OCc1ccccc1 , inhibition reported as 47%

Entry CCOC(=O)[C@H]1O[C@H]1C(=O)[C@H](CCc1ccccc1)NC(=O)[C@H](Cc1ccccc1)NC(=O)OCc1ccccc1 , inhibition reported as 51%

----------
Kindly state inhibition for each of the entries shown.
TARGET_UNDER_TEST: UniProt:P25779
EXPERIMENT_NOTES: Inhibition of cruzain
Parameters: concentration or dose not given beside the values
MEASUREMENT_SETUP: concentration not given here
Write the numeric value and follow it with the unit.

Entry CCOC(=O)[C@@H]1O[C@H]1[C@@H](O)[C@H](CCc1ccccc1)NC(=O)[C@H](Cc1ccccc1)NC(=O)OCc1ccccc1 , inhibition reported as 1%

Entry CCOC(=O)[C@H]1O[C@H]1[C@H](O)[C@H](CCc1ccccc1)NC(=O)[C@H](Cc1ccccc1)NC(=O)OCc1ccccc1 , inhibition reported as 5%

Entry CN1CCN(C(=O)N[C@@H](Cc2ccccc2)C(=O)N[C@H](/C=C/S(=O)(=O)c2ccccc2)CCc2ccccc2)CC1 , inhibition reported as 100%

Entry CCOC(=O)[C@@H]1O[C@@H]1C(=O)[C@H](CCc1ccccc1)NC(=O)[C@H](Cc1ccccc1)NC(=O)OCc1ccccc1 , inhibition reported as 55%

Entry CCOC(=O)[C@H]1O[C@H]1C(=O)[C@H](CCc1ccccc1)NC(=O)[C@H](Cc1ccccc1)NC(=O)OCc1ccccc1 , inhibition reported as 93%

----------
Kindly state inhibition for each of the entries shown.
TARGET_UNDER_TEST: Rhodesain (Trypanosoma brucei rhodesiense) (UniProt Q95PM0)
Sequence (Q95PM0 1-450): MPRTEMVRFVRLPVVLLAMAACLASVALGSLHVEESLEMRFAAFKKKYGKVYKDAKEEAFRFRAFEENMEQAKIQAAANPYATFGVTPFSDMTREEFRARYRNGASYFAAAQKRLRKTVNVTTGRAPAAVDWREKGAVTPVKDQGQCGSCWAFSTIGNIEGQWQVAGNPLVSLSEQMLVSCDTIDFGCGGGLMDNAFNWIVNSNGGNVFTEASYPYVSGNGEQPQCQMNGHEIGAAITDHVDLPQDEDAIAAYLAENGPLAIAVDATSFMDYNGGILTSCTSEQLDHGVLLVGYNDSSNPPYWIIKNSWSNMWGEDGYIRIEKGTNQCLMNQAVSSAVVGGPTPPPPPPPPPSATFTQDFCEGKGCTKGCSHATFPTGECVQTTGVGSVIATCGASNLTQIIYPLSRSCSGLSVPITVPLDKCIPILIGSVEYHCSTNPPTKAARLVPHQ
EXPERIMENT_NOTES: Inhibition of rhodesain
Parameters: concentration or dose not given beside the values
MEASUREMENT_SETUP: concentration not given here
Dear colleague, please return just the value in %, with no unit written.

Entry CCOC(=O)[C@H]1O[C@H]1C(=O)[C@H](CCc1ccccc1)NC(=O)[C@H](Cc1ccccc1)NC(=O)OCc1ccccc1 , inhibition reported as 98

Entry CCOC(=O)[C@@H]1O[C@@H]1C(=O)[C@H](CCc1ccccc1)NC(=O)[C@H](Cc1ccccc1)NC(=O)OCc1ccccc1 , inhibition reported as 80

Entry CN1CCN(C(=O)N[C@@H](Cc2ccccc2)C(=O)N[C@H](/C=C/S(=O)(=O)c2ccccc2)CCc2ccccc2)CC1 , inhibition reported as 72

Entry CCOC(=O)[C@H]1O[C@H]1[C@H](O)[C@H](CCc1ccccc1)NC(=O)[C@H](Cc1ccccc1)NC(=O)OCc1ccccc1 , inhibition reported as -4

Entry CCOC(=O)[C@@H]1O[C@H]1[C@@H](O)[C@H](CCc1ccccc1)NC(=O)[C@H](Cc1ccccc1)NC(=O)OCc1ccccc1 , inhibition reported as 3

----------
Kindly state pIC50 for each of the entries shown.
Please report pIC50 as the negative decimal logarithm of the molar concentration, giving only the number.

Param item: CCOC(=O)[C@H]1O[C@H]1C(=O)[C@H](CCc1ccccc1)NC(=O)[C@H](Cc1ccccc1)NC(=O)OCc1ccccc1 ; param system: Rhodesain (Trypanosoma brucei rhodesiense, UniProt Q95PM0); output pIC50: 8.46

Param item: CCOC(=O)[C@@H]1O[C@@H]1C(=O)[C@H](CCc1ccccc1)NC(=O)[C@H](Cc1ccccc1)NC(=O)OCc1ccccc1 ; param system: Rhodesain (Trypanosoma brucei rhodesiense, UniProt Q95PM0); output pIC50: 7.52
